Entries annotated with measured glycan array binding signal (z-score)
EXPERIMENTAL SYSTEM: Neu5Ac(a2-3)Gal(b1-4)GlcNAc(b1-3)Gal(b1-4)[Fuc(a1-3)]GlcNAc
PROTOCOL SUMMARY: glycan array binding signal (z-score within array); higher = stronger binding
CONDITION PARAMETERS: glycan notation: IUPAC condensed, linker removed
The entries come from a sample that favours the strongest signals as a whole.

BINDER: Drgal1 (Danio rerio) (protein) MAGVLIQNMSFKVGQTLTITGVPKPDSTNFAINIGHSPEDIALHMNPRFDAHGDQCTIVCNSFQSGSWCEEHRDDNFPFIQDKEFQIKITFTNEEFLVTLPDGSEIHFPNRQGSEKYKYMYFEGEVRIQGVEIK
glycan array binding signal (z-score): -0.022

BINDER: EUL D1A first (Oryza sativa) (protein) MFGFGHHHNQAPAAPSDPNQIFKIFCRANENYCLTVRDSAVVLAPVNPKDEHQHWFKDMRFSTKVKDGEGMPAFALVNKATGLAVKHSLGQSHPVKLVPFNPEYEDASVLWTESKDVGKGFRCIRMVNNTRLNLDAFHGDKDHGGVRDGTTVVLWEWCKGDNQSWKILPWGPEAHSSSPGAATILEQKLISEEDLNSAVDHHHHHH
glycan array binding signal (z-score): -0.958

BINDER: PILRa (Homo sapiens), Q9UKJ1 (protein) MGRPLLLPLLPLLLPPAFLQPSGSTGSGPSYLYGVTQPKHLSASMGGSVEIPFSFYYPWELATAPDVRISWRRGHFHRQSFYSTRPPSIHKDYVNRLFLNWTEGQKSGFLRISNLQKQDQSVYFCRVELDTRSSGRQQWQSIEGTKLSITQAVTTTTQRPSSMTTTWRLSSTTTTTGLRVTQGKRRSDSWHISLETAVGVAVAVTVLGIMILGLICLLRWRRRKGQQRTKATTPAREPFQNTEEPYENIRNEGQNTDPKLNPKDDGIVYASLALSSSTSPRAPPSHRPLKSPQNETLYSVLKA
glycan array binding signal (z-score): -0.125

BINDER: CFEM-PPl (Pichia pastoris), F2QPV1 (protein) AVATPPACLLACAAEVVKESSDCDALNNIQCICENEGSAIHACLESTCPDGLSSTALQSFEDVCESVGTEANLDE
glycan array binding signal (z-score): -0.181
